# test_target: BCL-XL (Homo sapiens)
# Construct: endogenous in cells; host or cells: MOLT-4
# Sequence (Q07817 whole entry): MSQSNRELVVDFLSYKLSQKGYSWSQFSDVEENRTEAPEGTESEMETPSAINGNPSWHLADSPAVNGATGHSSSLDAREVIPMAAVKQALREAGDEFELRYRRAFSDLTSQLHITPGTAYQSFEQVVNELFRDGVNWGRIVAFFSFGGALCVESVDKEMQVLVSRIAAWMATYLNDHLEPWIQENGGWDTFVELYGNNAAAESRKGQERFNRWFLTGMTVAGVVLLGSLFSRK
# experimental_details: BCL-XL degradation assay, western blot in MOLT-4 cells, 16 h
# Type: cell-based
# test_settings: western blot, MOLT-4 cells, 16 h; read-out: Bcl-xL WB in MOLT-4 degradation 16 h: Mean external-Abs DC50
quantity: DC50

Can you share its DC50? I mean this compound: Cc1ncsc1-c1ccc([C@H](C)NC(=O)[C@@H]2C[C@@H](O)CN2C(=O)[C@@H](NC(=O)CCCCCS(=O)(=O)NC(=O)c2cccc(N3CCc4cccc(C(=O)Nc5nc6ccccc6s5)c4C3)n2)C(C)(C)C)cc1 [I-119]
> 1000 nM

Next, consider the following compound.
I would be grateful if you could share the reported DC50 for Cc1ncsc1-c1ccc([C@H](C)NC(=O)[C@@H]2C[C@@H](O)CN2C(=O)[C@@H](NC(=O)N2CC3(CC(N4CCN(C(=O)c5nc(N6CCc7cccc(C(=O)Nc8nc9ccccc9s8)c7C6)ccc5-c5cnn(CC6CCCCC6)c5C)CC4)C3)C2)C(C)(C)C)cc1 [I-248] .
10 to 100 nM

---

# test_target: BCL-XL (Homo sapiens)
# Construct: endogenous in cells; host or cells: MOLT-4
# experimental_details: Bcl-xL ELISA degradation in MOLT-4 cells, 6 h
# Format: cell-based
quantity: Dmax

Name the reported Dmax value associated with the compound Cc1cc(N(C)c2ccc(-c3cnn(CC45CC6CC(CC(C6)C4)C5)c3C)c(C(=O)NS(=O)(=O)CCN(C)CCC(=O)N[C@H](C(=O)N3C[C@H](O)C[C@H]3C(=O)N[C@@H](C)c3ccc(-c4scnc4C)cc3)C(C)(C)C)n2)nnc1Nc1nc2ccccc2s1
> 75%

Form field: reported Dmax of Cc1ncsc1-c1ccc([C@H](C)NC(=O)[C@@H]2C[C@@H](O)CN2C(=O)[C@@H](NC(=O)CCCCCS(=O)(=O)NC(=O)c2nc(N3CCc4cccc(C(=O)Nc5nc6cccnc6s5)c4C3)ccc2-c2cnn(CC(C)(C)C)c2C)C(C)(C)C)cc1
> 75%

Which Dmax value belongs to C#Cc1ccc(CNC(=O)[C@@H]2C[C@@H](O)CN2C(=O)[C@@H](NC(=O)C2CN(c3ccc(S(=O)(=O)NC(=O)c4nc(N5CCc6cccc(C(=O)Nc7nc8ccccc8s7)c6C5)ccc4-c4cnn(CC5CCCCC5)c4C)cc3F)C2)C(C)(C)C)cc1 ?
> 75%

Given the compound Cc1ncsc1-c1ccc(CNC(=O)[C@@H]2C[C@@H](O)CN2C(=O)[C@@H](NC(=O)C2CCN(c3ccc(S(=O)(=O)NC(=O)c4nc(N5CCc6cccc(C(=O)Nc7nc8ccccc8s7)c6C5)ccc4-c4cnn(CC5CCCCC5)c4C)cc3C#N)CC2)C(C)(C)C)cc1 , what is its reported Dmax?
> 75%

What value of Dmax has been reported for the following compound? Cc1ncsc1-c1ccc([C@H](C)NC(=O)[C@@H]2C[C@@H](O)CN2C(=O)[C@@H](c2cc(OC3CC4(C3)CN(C(=O)c3nc(N5CCc6cccc(C(=O)Nc7nc8ccccc8s7)c6C5)ccc3-c3cnn(CC5CCCCC5)c3C)C4)no2)C(C)C)cc1
50 to 75%

GET /values?readout=Dmax&item= Cc1ncsc1-c1ccc([C@H](C)NC(=O)[C@@H]2C[C@@H](O)CN2C(=O)[C@@H](NC(=O)C#CC2CCN(S(=O)(=O)NC(=O)c3nc(N4CCc5cccc(C(=O)Nc6nc7ccccc7s6)c5C4)ccc3-c3cnn(CC4CCCCC4)c3C)CC2)C(C)(C)C)cc1
> 75%

Others:
Quick check: Dmax of Cc1ncsc1-c1ccc([C@H](C)NC(=O)[C@@H]2C[C@@H](O)CN2C(=O)[C@@H](NC(=O)CN2CC(N3CCC(NC(=O)c4nc(N5CCc6cccc(C(=O)Nc7nc8ccccc8s7)c6C5)ccc4-c4cnn(CC5CCCCC5)c4C)CC3)C2)C(C)(C)C)cc1 ?
50 to 75%

What does the record list as Dmax for C#Cc1ccc([C@H](CO)NC(=O)[C@@H]2C[C@@H](O)CN2C(=O)[C@@H](NC(=O)CCc2ccc(S(=O)(=O)NC(=O)c3nc(N(C)c4cc(C)c(Nc5nc6ccccc6s5)nn4)ccc3-c3cnn(CC4CCCCC4)c3C)cc2)C(C)(C)C)cc1 ?
50 to 75%

Would you kindly share the measured Dmax for Cc1ncsc1-c1ccc([C@H](C)NC(=O)[C@@H]2C[C@@H](O)CN2C(=O)[C@@H](NC(=O)CCCCCCCOc2nc(N3CCc4cccc(C(=O)Nc5nc6ccccc6s5)c4C3)ccc2-c2cnn(CC3CCCCC3)c2C)C(C)(C)C)cc1 ?
< 50%
